- test_details: Solubility at room temperature, manual dilution combined with visual observation
- Type: physicochemical
- test_settings: THF-H2O (1:1); room temperature; read-out: Solubility
Where a SMILES comes first, the peptide text is derived from it. The star is where a group is joined. Palmitoyl = CCCCCCCCCCCCCCCC(=O)*
Collected solubility values appear next to each entry.

[[record]]
compound = "CCCCCCCCCCCCCCCC(=O)N1CCC[C@H]1C(=O)N1CCC[C@H]1C(=O)NCC(=O)N[C@@H](Cc1ccc(O)cc1)C(=O)[O-].[Na+] [Compound I] (Palmitoyl-PPGY-OH)"
observed = "50 to 100 mg/mL"


For the next question, use this compound.
GET /values?readout=solubility&item= CCCCCCCCCCCCCCCC(=O)N1CCC[C@H]1C(=O)N1CCC[C@H]1C(=O)NCC(=O)N[C@@H](Cc1ccc(O)cc1)C(=O)O [Compound II] (Palmitoyl-PPGY-OH)
1 to 5 mg/mL

* * *

- test_details: Solubility by shaking at 25° C., filtration and HPLC of the filtrate
- Type: physicochemical
- test_settings: FaSSIF with 5% SLS, 5% SLS added; FaSSIF; LOQ = 2 μg/mL; read-out: Solubility
Where a SMILES comes first, the peptide text is derived from it. The star is where a group is joined. Palmitoyl = CCCCCCCCCCCCCCCC(=O)*
quantity_measured: solubility
Just so you know, I need the unit written after the number.

GET /values?readout=solubility&item= CCCCCCCCCCCCCCCC(=O)N1CCC[C@H]1C(=O)N1CCC[C@H]1C(=O)NCC(=O)N[C@@H](Cc1ccc(O)cc1)C(=O)O [Compound II] (Palmitoyl-PPGY-OH)
5090 µg/mL

* * *

- test_details: Solubility at room temperature, manual dilution combined with visual observation
- Format: physicochemical
- test_settings: acetone-H2O (1:2); room temperature; read-out: Solubility
Where a SMILES comes first, the peptide text is derived from it. The star is where a group is joined. Palmitoyl = CCCCCCCCCCCCCCCC(=O)*
quantity_measured: solubility

[[record]]
molecule = "CCCCCCCCCCCCCCCC(=O)N1CCC[C@H]1C(=O)N1CCC[C@H]1C(=O)NCC(=O)N[C@@H](Cc1ccc(O)cc1)C(=O)[O-].[Na+] [Compound I] (Palmitoyl-PPGY-OH)"
quantity_measured = "solubility"
observed = "50 to 100 mg/mL"


For the next question, use this molecule.
GET /values?readout=solubility&item= CCCCCCCCCCCCCCCC(=O)N1CCC[C@H]1C(=O)N1CCC[C@H]1C(=O)NCC(=O)N[C@@H](Cc1ccc(O)cc1)C(=O)O [Compound II] (Palmitoyl-PPGY-OH)
< 1 mg/mL

* * *

- test_details: Solubility by shaking at 25° C., filtration and HPLC of the filtrate
- Type: physicochemical
- test_settings: water; lower than the limit of quantification (LOQ); read-out: water solubility
Where a SMILES comes first, the peptide text is derived from it. The star is where a group is joined. Palmitoyl = CCCCCCCCCCCCCCCC(=O)*
quantity_measured: solubility

GET /values?readout=solubility&item= CCCCCCCCCCCCCCCC(=O)N1CCC[C@H]1C(=O)N1CCC[C@H]1C(=O)NCC(=O)N[C@@H](Cc1ccc(O)cc1)C(=O)O [Compound II] (Palmitoyl-PPGY-OH)
< 2 µg/mL

* * *

- test_details: Solubility by shaking at 25° C., filtration and HPLC of the filtrate
- Format: physicochemical
- test_settings: FaSSIF with 1% SLS, 1% SLS added; FaSSIF; LOQ = 2 μg/mL; read-out: Solubility
Where a SMILES comes first, the peptide text is derived from it. The star is where a group is joined. Palmitoyl = CCCCCCCCCCCCCCCC(=O)*
quantity_measured: solubility (µg/mL)
// units = µg/mL; emit number, no label

GET /values?readout=solubility&item= CCCCCCCCCCCCCCCC(=O)N1CCC[C@H]1C(=O)N1CCC[C@H]1C(=O)NCC(=O)N[C@@H](Cc1ccc(O)cc1)C(=O)O [Compound II] (Palmitoyl-PPGY-OH)
1990

* * *

- test_details: Solubility at room temperature, manual dilution combined with visual observation
- Type: physicochemical
- test_settings: water; room temperature; read-out: Solubility
Where a SMILES comes first, the peptide text is derived from it. The star is where a group is joined. Palmitoyl = CCCCCCCCCCCCCCCC(=O)*
Collected solubility values appear next to each entry.

[[record]]
compound = "CCCCCCCCCCCCCCCC(=O)N1CCC[C@H]1C(=O)N1CCC[C@H]1C(=O)NCC(=O)N[C@@H](Cc1ccc(O)cc1)C(=O)[O-].[Na+] [Compound I] (Palmitoyl-PPGY-OH)"
quantity_measured = "solubility"
observed = "≥ 100 mg/mL"


For the next question, use this compound.
GET /values?readout=solubility&item= CCCCCCCCCCCCCCCC(=O)N1CCC[C@H]1C(=O)N1CCC[C@H]1C(=O)NCC(=O)N[C@@H](Cc1ccc(O)cc1)C(=O)O [Compound II] (Palmitoyl-PPGY-OH)
< 1 mg/mL

* * *

- test_details: Solubility at room temperature, manual dilution combined with visual observation
- Type: physicochemical
- test_settings: ACN-H2O (1:1); room temperature; read-out: Solubility
Where a SMILES comes first, the peptide text is derived from it. The star is where a group is joined. Palmitoyl = CCCCCCCCCCCCCCCC(=O)*
Collected solubility values appear next to each entry.

[[record]]
compound = "CCCCCCCCCCCCCCCC(=O)N1CCC[C@H]1C(=O)N1CCC[C@H]1C(=O)NCC(=O)N[C@@H](Cc1ccc(O)cc1)C(=O)[O-].[Na+] [Compound I] (Palmitoyl-PPGY-OH)"
observed = "50 to 100 mg/mL"


GET /values?readout=solubility&item= CCCCCCCCCCCCCCCC(=O)N1CCC[C@H]1C(=O)N1CCC[C@H]1C(=O)NCC(=O)N[C@@H](Cc1ccc(O)cc1)C(=O)O [Compound II] (Palmitoyl-PPGY-OH)
< 1 mg/mL

* * *

- test_details: Solubility at room temperature, manual dilution combined with visual observation
- Format: physicochemical
- test_settings: methyl isobutyl ketone; room temperature; read-out: Solubility
Where a SMILES comes first, the peptide text is derived from it. The star is where a group is joined. Palmitoyl = CCCCCCCCCCCCCCCC(=O)*
Collected solubility values appear next to each entry.

GET /values?readout=solubility&item= CCCCCCCCCCCCCCCC(=O)N1CCC[C@H]1C(=O)N1CCC[C@H]1C(=O)NCC(=O)N[C@@H](Cc1ccc(O)cc1)C(=O)O [Compound II] (Palmitoyl-PPGY-OH)
< 1000 µg/mL

Then CCCCCCCCCCCCCCCC(=O)N1CCC[C@H]1C(=O)N1CCC[C@H]1C(=O)NCC(=O)N[C@@H](Cc1ccc(O)cc1)C(=O)[O-].[Na+] [Compound I] (Palmitoyl-PPGY-OH) ?
1200 to 1400 µg/mL

* * *

- test_details: Solubility by shaking at 25° C., filtration and HPLC of the filtrate
- Type: physicochemical
- test_settings: water with 5% SLS, 5% SLS added; Water; LOQ = 2 μg/mL; read-out: Solubility
Where a SMILES comes first, the peptide text is derived from it. The star is where a group is joined. Palmitoyl = CCCCCCCCCCCCCCCC(=O)*
quantity_measured: solubility (µg/mL)
// units = µg/mL; emit number, no label

GET /values?readout=solubility&item= CCCCCCCCCCCCCCCC(=O)N1CCC[C@H]1C(=O)N1CCC[C@H]1C(=O)NCC(=O)N[C@@H](Cc1ccc(O)cc1)C(=O)O [Compound II] (Palmitoyl-PPGY-OH)
1920

* * *

- test_details: Solubility at room temperature, manual dilution combined with visual observation
- Type: physicochemical
- test_settings: ethanol; room temperature; read-out: Solubility
Where a SMILES comes first, the peptide text is derived from it. The star is where a group is joined. Palmitoyl = CCCCCCCCCCCCCCCC(=O)*
quantity_measured: solubility

[[record]]
compound = "CCCCCCCCCCCCCCCC(=O)N1CCC[C@H]1C(=O)N1CCC[C@H]1C(=O)NCC(=O)N[C@@H](Cc1ccc(O)cc1)C(=O)[O-].[Na+] [Compound I] (Palmitoyl-PPGY-OH)"
quantity_measured = "solubility"
observed = "50 to 100 mg/mL"


For the next question, use this compound.
GET /values?readout=solubility&item= CCCCCCCCCCCCCCCC(=O)N1CCC[C@H]1C(=O)N1CCC[C@H]1C(=O)NCC(=O)N[C@@H](Cc1ccc(O)cc1)C(=O)O [Compound II] (Palmitoyl-PPGY-OH)
< 1 mg/mL

* * *

Collected solubility values appear next to each entry.
- test_details: Solubility at room temperature, manual dilution combined with visual observation
- Type: physicochemical
- test_settings: DMSO; room temperature; read-out: Solubility
Where a SMILES comes first, the peptide text is derived from it. The star is where a group is joined. Palmitoyl = CCCCCCCCCCCCCCCC(=O)*

[[record]]
compound = "CCCCCCCCCCCCCCCC(=O)N1CCC[C@H]1C(=O)N1CCC[C@H]1C(=O)NCC(=O)N[C@@H](Cc1ccc(O)cc1)C(=O)[O-].[Na+] [Compound I] (Palmitoyl-PPGY-OH)"
quantity_measured = "solubility"
observed = "50 to 100 mg/mL"


For the next question, use this compound.
GET /values?readout=solubility&item= CCCCCCCCCCCCCCCC(=O)N1CCC[C@H]1C(=O)N1CCC[C@H]1C(=O)NCC(=O)N[C@@H](Cc1ccc(O)cc1)C(=O)O [Compound II] (Palmitoyl-PPGY-OH)
10 to 25 mg/mL
